All figures here come from patent US20190276481A1.

Assay: Caco-2 permeability assay
Format: in vitro ADME
Details: human, basolateral to apical
Measurement Name: Papp B→A
I'd appreciate it if you included the unit after the number.

Documented Papp B→A of O=C(Nc1ccccc1)c1ccccc1O [Salicylanilide, 2-Hydroxy-N-phenylbenzamide] : 33 ×10⁻⁶ cm/s

* * *

Experiment: Caco-2 permeability assay
Format: in vitro ADME
Settings: human, basolateral to apical
Measurement Name: Papp B→A at 10 μM (×10⁻⁶ cm/s)
Give your result in ×10⁻⁶ cm/s as a bare value.

The molecule listed as "O=[N+]([O-])c1ccc(O)c([N+](=O)[O-])c1" has a reported Papp B→A at 10 μM of 27

* * *

Test: Caco-2 permeability assay
Format: in vitro ADME
Conditions: human, apical to basolateral
Measurement Name: Papp A→B (×10⁻⁶ cm/s)
Only the number, expressed in ×10⁻⁶ cm/s, is required.

In plain terms, O=C(Nc1ccccc1)c1ccccc1O [Salicylanilide, 2-Hydroxy-N-phenylbenzamide] has a documented Papp A→B of 39.5
